Quick list: IC50 per entry.
experimental-system: Recombinant human PI3Kγ (full length human PI3K p110γ) (Homo sapiens, UniProt P48736)
Construct: full length human PI3K p110γ fused with a His6-tag at the C-terminus; His6 (C); purchased ALEXIS BIOCHEMICALS #201-055-C010; host or cells: S. frugiperda 9 insect cells
Sequence (P48736 whole entry, the tested form may be a part): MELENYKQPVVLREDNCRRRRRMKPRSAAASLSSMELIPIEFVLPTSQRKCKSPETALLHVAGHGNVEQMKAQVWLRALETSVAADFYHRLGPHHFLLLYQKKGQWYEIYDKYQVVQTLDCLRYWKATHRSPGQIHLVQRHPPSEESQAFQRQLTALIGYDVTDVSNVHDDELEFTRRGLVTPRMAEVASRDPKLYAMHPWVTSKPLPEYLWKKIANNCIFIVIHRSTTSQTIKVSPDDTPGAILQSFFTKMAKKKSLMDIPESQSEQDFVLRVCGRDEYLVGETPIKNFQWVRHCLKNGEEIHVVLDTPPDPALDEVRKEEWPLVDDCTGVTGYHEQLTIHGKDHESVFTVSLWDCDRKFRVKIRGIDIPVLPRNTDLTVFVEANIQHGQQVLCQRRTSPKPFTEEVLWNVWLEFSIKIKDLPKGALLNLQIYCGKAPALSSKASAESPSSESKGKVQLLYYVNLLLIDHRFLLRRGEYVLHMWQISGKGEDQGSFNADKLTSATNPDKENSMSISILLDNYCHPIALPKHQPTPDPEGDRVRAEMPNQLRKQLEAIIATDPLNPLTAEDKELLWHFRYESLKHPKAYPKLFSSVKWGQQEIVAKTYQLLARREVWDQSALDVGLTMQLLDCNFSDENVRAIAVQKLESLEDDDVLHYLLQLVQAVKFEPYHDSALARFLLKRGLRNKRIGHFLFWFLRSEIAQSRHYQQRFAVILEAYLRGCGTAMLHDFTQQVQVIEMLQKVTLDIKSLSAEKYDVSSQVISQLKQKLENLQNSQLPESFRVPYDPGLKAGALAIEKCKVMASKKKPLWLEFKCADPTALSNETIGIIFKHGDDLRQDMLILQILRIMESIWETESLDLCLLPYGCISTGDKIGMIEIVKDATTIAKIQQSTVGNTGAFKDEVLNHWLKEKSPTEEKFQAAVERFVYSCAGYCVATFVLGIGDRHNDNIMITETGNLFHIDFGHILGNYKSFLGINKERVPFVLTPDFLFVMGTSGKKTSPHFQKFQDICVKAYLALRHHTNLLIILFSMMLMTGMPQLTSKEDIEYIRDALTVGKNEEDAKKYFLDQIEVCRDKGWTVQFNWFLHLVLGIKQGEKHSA
method-notes: Kinase assay of PI3Kγ (solid-phase lipid kinase assay)
Assay type: biochemical
protocol-conditions: in vitro PI3K-γ inhibitory activity, class symbols; read-out: in vitro PI3K-gamma

Worked cases, IC50 given:
Cc1ccc2c(c1)C1=NCCN1C(NC(=O)c1cccnc1)=N2 [Example 2-90]: < 0.1 µM
COc1cc2c(cc1OC)C1=NCCN1C(NC(=O)c1ccc3[nH]cnc3c1)=N2 [Example 2-60]: < 0.1 µM

As a next step, examine the compound that follows.
Lookup: Looking for the measured IC50 of O=C(NC1=Nc2cc(C(F)(F)F)ccc2C2=NCCN12)c1ccc2[nH]cnc2c1 [Example 2-36] , can you help?
Found: 0.1 to 0.5 µM

* * *

readout-kind: melting point (°C)

O/C(=C\C1=Nc2cc(C(F)(F)F)ccc2C2=NCCN12)c1cccnc1: 264
Cl.O=C(NC1=Nc2c(F)cccc2C2=NCCN12)c1cccnc1: 288
Cl.O=C(NC1=Nc2cc(Cl)ccc2C2=NCCN12)c1ccc2[nH]cnc2c1: 270
COc1cc2c(c(OC)c1C)N=C(/C=C(\O)c1cccnc1)N1CCN=C21: 278

* * *

Quick list: melting point per entry.

O=C(NC1=Nc2ccccc2C2=NCCN12)c1cccc(Cl)c1: 196 to 197 °C
CCC(C)[C@H]1CN2C(NC(=O)c3cccnc3)=Nc3ccccc3C2=N1.Cl (some centres unmarked): 230 to 240 °C
CC(C)C(=O)NC1=Nc2ccccc2C2=NCCN12: 104 to 105 °C
O/C(=C\C1=Nc2ccc(Cl)cc2C2=NCCN12)c1cccnc1 [Example 1-130]: > 330 °C

As a next step, examine the compound that follows.
Lookup: Looking for the measured melting point of COc1ccc2c(c1)N=C(NC(=O)c1ccc(N)nc1)N1CCN=C21.Cl , can you help?
Found: 273 °C (dec.)

* * *

Quick list: melting point per entry.

CN(C)c1ccc(C(=O)NC2=Nc3ccccc3C3=NCCN23)cc1.O=C(O)C(F)(F)F [Example 2-260]: 240 °C (dec.)
CC(=O)Nc1ccc(/C(O)=C/C2=Nc3c(C)cc(Br)cc3C3=NCCN23)cn1.Cl [Example 1-44]: > 290 °C

As a next step, examine the molecule that follows.
Lookup: Looking for the measured melting point of O/C(=C\C1=Nc2ccccc2C2=NCCN12)c1ccccc1O [Example 1-170] , can you help?
Found: 252 to 256 °C

* * *

readout-kind: melting point

Worked cases, melting point given:
Nc1ccc(C(=O)NC2=Nc3ccccc3C3=NCCN23)cn1: > 300 °C
CC(=O)Nc1ccc(/C(O)=C/C2=Nc3c(ccc(C)c3OCCN3CCOCC3)C3=NCCN23)cn1.Cl: 271 °C
Cl.O=C(NC1=Nc2cc(C(F)(F)F)ccc2C2=NCCN12)c1ccc2[nH]cnc2c1: 288 °C
O=C(NC1=Nc2ccccc2C2=NCCN12)c1ccccn1.O=C(O)C(F)(F)F: 206 °C (dec.)
COc1cc2c(cc1OC)C1=NCCN1C(/C=C(\O)c1ccc(C)nc1)=N2: 200 to 204 °C
COc1cccc2c1N=C(NC(=O)c1cc3cccnc3nc1C)N1CCN=C21.Cl: 225 °C (dec.)

Lookup: Looking for the measured melting point of Cl.O=C(NC1=Nc2ccccc2C2=NCCN12)c1ccc(C(F)(F)F)nc1 , can you help?
Found: > 250 °C
